Values compiled from the OPERA property sets (Mansouri et al. 2018).

We begin with a simple list: items and their reported log10 Koc (L/kg).
metric.name: log10 Koc (L/kg)

compound=Oc1ccccc1Cl experimental_result=2.6
compound="CNC(=O)O/N=C/C(C)(C)S(C)=O (stereo not drawn)" experimental_result=0.56
compound=CC(=O)Nc1ccc(Cl)c(Cl)c1 experimental_result=2.34
compound=CNC(=O)O/N=C/C(C)(C)S(C)(=O)=O experimental_result=0.42
compound=CNC(=O)Oc1cc(C)cc(C(C)C)c1 experimental_result=2.48
compound=CCOP(=S)(OCC)SCn1c(=O)oc2cc(Cl)ccc21 experimental_result=2.63
compound=Clc1ccc(Cl)c(-c2ccc(Cl)c(Cl)c2Cl)c1 experimental_result=4.62
compound=CC(C)OC(=O)Nc1ccccc1 experimental_result=1.83
compound=COC(=O)c1cc(Cl)cc(N)c1Cl experimental_result=2.74
compound="C=CC1(C)OC(=O)N(c2cc(Cl)cc(Cl)c2)C1=O (stereo not drawn)" experimental_result=2.7
compound=CCCCOC(=O)c1ccccc1 experimental_result=2.1
compound=O=C(O)Cn1c(=O)sc2cccc(Cl)c21 experimental_result=1.52
compound=Cc1nnc(-c2ccccc2)c(=O)n1N experimental_result=2.17
compound=CCN(CC)c1nc(C)cc(OP(=S)(OC)OC)n1 experimental_result=3
compound=ClC(Cl)=C(c1ccc(Cl)cc1)c1ccc(Cl)cc1 experimental_result=4.82
compound=CCCN(CC1CC1)c1c([N+](=O)[O-])cc(C(F)(F)F)cc1[N+](=O)[O-] experimental_result=4.01
compound=CC(=O)Nc1ccccc1 experimental_result=1.43
compound=CC(C)OP(=O)(OC(C)C)SCc1ccccc1 experimental_result=2.26
compound=O=C(O)c1c2ccccc2cc2ccccc12 experimental_result=2.74
compound=CCCSC(=O)N(CCC)CCC experimental_result=2.33
compound=O=C(Cc1c(Cl)ccc(Cl)c1Cl)[O][Na] experimental_result=1.72
compound=ClC(Cl)C(Cl)Cl experimental_result=1.9
compound=BrCCBr experimental_result=1.71
compound=CC(C)CCCCCOC(=O)c1ccccc1C(=O)OCCCCCC(C)C experimental_result=3.21
compound=C=C(C)[C@H]1Cc2c(ccc3c2O[C@@H]2COc4cc(OC)c(OC)cc4[C@@H]2C3=O)O1 experimental_result=4
compound=c1ccc2c(c1)ccc1ccccc12 experimental_result=4.35
compound="O=C1C2CC=CCC2C(=O)N1SC(Cl)(Cl)Cl (stereo not drawn)" experimental_result=2.3
compound=ClC(Cl)(Cl)Cl experimental_result=1.85
compound=Brc1ccccc1 experimental_result=2.49
compound=CC(C)N(C(=O)SCC(Cl)=C(Cl)Cl)C(C)C experimental_result=3.35
compound="CCOP(=S)(OCC)Oc1ccc(S(C)=O)cc1 (stereo not drawn)" experimental_result=2.52
compound=CCOC(=O)Cc1ccccc1 experimental_result=1.89
compound="ClC1=C(Cl)[C@]2(Cl)[C@H]3[C@H]([C@@H]4C=C[C@H]3C4)[C@@]1(Cl)C2(Cl)Cl (racemic)" experimental_result=4.69

###

Listing of entries alongside the reported boiling point.
metric.name: boiling point (°C)

compound=Cc1ccc(-c2ccc(C)cc2C)c(C)c1 experimental_result=287
compound=C=C(C)c1cccc(C(=C)C)c1 experimental_result=231
compound="CC(C)CCOC(=O)C(C)O (centres undefined)" experimental_result=202
compound=CC(=O)OC(OC(C)=O)c1ccccc1 experimental_result=220
